These data points were gathered from PubChem BioAssay (NCATS).

# ASSAY METHOD TEXT: Quantitative High-Throughput drug screen in 47 multiple myeloma cell lines against the NCATS MIPE library collection: PCM6_Riken cell viability assay (AID 1919870); further: nearly all actives have a fitted effect of over 30% in size
# MEASUREMENT SETUP: CellTiter-Glo ATP, 48 h; series mostly up to 45.8 µM
Inconclusive results are not listed. The source made the active and inactive calls. The call rests on the fitted dose curve; in most records, active means well fitted cell-killing curve with a large enough effect; inconclusive means small, poorly fitted or top-dose-only effect, or effect the other way; inactive means no such curve, though single readings can be large or run the other way.
Labels: active, inactive

{"columns": ["MOLECULE", "CATEGORY"],
 "data": [
  ["CCc1ccc(CCOc2ccc(CC3SC(=O)NC3=O)cc2)nc1 (stereo unspecified)", "active"],
  ["COc1c(Cl)cc2c([nH]c3cnccc32)c1NC(=O)c1cccnc1C", "active"],
  ["CCN(c1ccccc1)c1cc(NC)[n+](C)c(C)n1", "inactive"],
  ["CC(C)(C)NCC(O)c1ccc(O)c(CO)c1 (stereo unspecified)", "inactive"],
  ["O=C1CCc2cc(OCCCCc3nnnn3C3CCCCC3)ccc2N1", "inactive"],
  ["CNC(=O)c1ccc(C)c(-n2c(C)cc(OCc3ccc(F)cc3F)c(Br)c2=O)c1", "active"],
  ["CN(C)c1ccc(Nc2nc(N)n(C(=O)c3c(F)cccc3F)n2)cc1", "active"],
  ["Cc1c(C)c2c(c(C)c1O)CCC(C)(COc1ccc(CC3SC(=O)NC3=O)cc1)O2 (stereo unspecified)", "active"],
  ["Cc1oncc1C(=O)Nc1ccc(C(F)(F)F)cc1", "inactive"],
  ["CCOC(=O)N[C@@H]1CC[C@@H]2[C@@H](C1)C[C@H]1C(=O)O[C@H](C)[C@H]1[C@@H]2C=Cc1ccc(-c2cccc(F)c2)cn1", "inactive"],
  ["OC(CN1CCC(Cc2ccc(F)cc2)CC1)c1ccc(Cl)cc1 (stereo unspecified)", "inactive"],
  ["Cc1ccnc(NS(=O)(=O)c2ccc(NC(=O)Nc3ccc(S(=O)(=O)Nc4nccc(C)n4)cc3)cc2)n1", "active"],
  ["O=C(O)[C@@H](c1ccc(OCc2ccc3ccccc3n2)cc1)C1CCCC1", "inactive"],
  ["COc1ccccc1[C@H](c1cccc2ccccc12)[C@@](C)(C#N)C(=O)N1CCC(c2cccc(C(F)(F)F)c2)CC1", "active"],
  ["NC(=O)C1CCCc2c1[nH]c1ccc(Cl)cc21 (stereo unspecified)", "active"],
  ["O=C(Nc1cccnc1)N1CCC(Cc2cccc(Oc3ccc(C(F)(F)F)cn3)c2)CC1", "active"],
  ["CCOC(=O)C1=C[C@]2(CC)CCCN3CCc4c(n1c1ccccc41)[C@@H]32", "active"],
  ["CC(C)NCC(O)COc1ccc(COCCOC(C)C)cc1 (stereo unspecified)", "inactive"],
  ["C[C@]12CC[C@H](O)CC1=CC[C@@H]1[C@H]2CC[C@]2(C)C(c3cccnc3)=CC[C@H]12", "inactive"],
  ["Cc1cc(Nc2nc(N[C@@H](C)c3ncc(F)cn3)ncc2Cl)n[nH]1", "active"],
  ["COc1ccc2nc(S(=O)Cc3ncc(C)c(OC)c3C)[nH]c2c1 (stereo unspecified)", "active"]
]}
